Values of AC50 reported for Thromboxane A2 receptor (Homo sapiens) appear below.

Solved cases below.
compound	value
CCOc1nc2cccc(C(=O)O)c2n1Cc1ccc(-c2ccccc2-c2nnn[nH]2)cc1	> 10 µM
COC(=O)C1=C(C)NC(C)=C(C(=O)OCCN2CCN(C(c3ccccc3)c3ccccc3)CC2)C1c1cccc([N+](=O)[O-])c1 (stereo not drawn)	> 30 µM
C[N+]12CCC(CC1)C(OC(=O)C(O)(c1ccccc1)c1ccccc1)C2 (stereo not drawn)	> 30 µM
CCCN1CC(NS(=O)(=O)N(CC)CC)CC2Cc3c(O)cccc3CC21 (stereo not drawn) [QUINAGOLIDE]	> 30 µM
c1ccc(C2(N3CCCCC3)CCCCC2)cc1	> 30 µM

Please tell me: AC50 of CC=CC1=C(C(=O)O)N2C(=O)[C@@H](NC(=O)[C@H](N)c3ccc(O)cc3)[C@H]2SC1 , system Thromboxane A2 receptor (Homo sapiens)?; also: assay procedure not described here
> 30 µM

// map CCC1(c2ccc(N)cc2)CCC(=O)NC1=O (stereo not drawn) [AMINOGLUTETHIMIDE] to recorded AC50 (system: Thromboxane A2 receptor (Homo sapiens)); also: assay procedure not described here
Sequence (P21731 whole entry): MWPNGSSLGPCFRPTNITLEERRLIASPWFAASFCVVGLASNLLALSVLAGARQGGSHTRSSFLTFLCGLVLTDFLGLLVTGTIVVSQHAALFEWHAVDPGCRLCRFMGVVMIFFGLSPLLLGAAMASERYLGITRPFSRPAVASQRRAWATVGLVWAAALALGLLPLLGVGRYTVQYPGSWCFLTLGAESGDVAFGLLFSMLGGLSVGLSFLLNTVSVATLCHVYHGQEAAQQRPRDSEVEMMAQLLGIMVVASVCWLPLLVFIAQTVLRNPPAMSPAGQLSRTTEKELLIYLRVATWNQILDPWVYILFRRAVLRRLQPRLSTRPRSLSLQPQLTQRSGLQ
> 30 µM

Hi! What's the reported AC50 for COc1cc(C(=O)NS(=O)(=O)c2ccccc2C)ccc1Cc1cn(C)c2ccc(NC(=O)OC3CCCC3)cc12 on Thromboxane A2 receptor (Homo sapiens)?
> 10 µM
